Target desc: T1, HLA-B*44:05 (human)
T1 construct: also called peptide-receptive MHC class I molecule
Assay info: UV peptide exchange, anti-b2m ELISA
Measured parameter: peptide exchange yield

Here are 4 binders together with their reported answers.
[
  {
    "Binder": "QEDKATQTL",
    "peptide exchange yield": "> 75%"
  },
  {
    "Binder": "SETPTLQGL",
    "peptide exchange yield": "50 to 75%"
  },
  {
    "Binder": "QEAPRPASSL",
    "peptide exchange yield": "50 to 75%"
  },
  {
    "Binder": "SEASQSPQY",
    "peptide exchange yield": "50 to 75%"
  }
]

Next:
Look up peptide exchange yield for this binder: IEYENQKRL 20 to 50%
